assay: in vivo; settings: male, SD, 5 mg/kg, rat, PO 5 mpk, read-out: T½ (converted)
Endpoint Name: half-life (h)

> print(dat)
                                   compound  reported
1  CCCCOc1nc(N)c2c(n1)N(Cc1cccc(CN3CCCC3)c1)CC(=O)N2 [GS-9620, reference compound]      2.24

---

experiment: in vivo; conditions: male, SD, rat, po, 5 mg/kg
Endpoint Name: AUC(0-inf) (µM·h)

> print(dat)
                                   compound  unit.text  reported
1  CCCCOc1nc(N)c2[nH]cc(Cc3ccc(CN4CCCC4)cc3)c2n1       µM·h     0.749
2  CCCCOc1nc(N)c2c(n1)N(Cc1cccc(CN3CCCC3)c1)CC(=O)N2 [GS-9620, reference compound]       µM·h     0.359

---

assay: in vivo; conditions: male, SD, rat, iv, 1 mg/kg
Measured AUC(0-inf) by item
Endpoint Name: AUC(0-inf) (µM·h)

> print(dat)
                                   compound  unit.text  reported
1  CCCCOc1nc(N)c2c(n1)N(Cc1cccc(CN3CCCC3)c1)CC(=O)N2 [GS-9620, reference compound]       µM·h     0.201
2  CCCCOc1nc(N)c2[nH]cc(Cc3ccc(CN4CCCC4)cc3)c2n1       µM·h     0.676

---

Quick list: minimal effective concentration per entry.
system: human peripheral blood mononuclear cells (PBMC); experiment: Peripheral blood mononuclear cell assay (cytokine induction, CBA); assay type: cell-based; details: Homo sapiens, PBMC, 24 h, human PBMC, 24 h, Minimal Effective Concentration; read-out: INF-α MEC
Endpoint Name: minimal effective concentration

> print(dat)
                                   compound                       experimental.target                    endpoint.name           reported
1  CCCCOc1nc(N)c2[nH]cc(Cc3cccc(CN4CCCC4)c3)c2n1 [Example 4]  human peripheral blood mononuclear cells (PBMC)  minimal effective concentration     0.01 to 100 µM
2  CCCCOc1nc(N)c2[nH]cc(Cc3ccc4c(c3)CN(C)CC4)c2n1 [Example 29]  human peripheral blood mononuclear cells (PBMC)  minimal effective concentration  1e-05 to 0.001 µM
3  CCCCOc1nc(N)c2[nH]cc(Cc3ccc(CN4CCCC4)cc3)c2n1 [Example 21]  human peripheral blood mononuclear cells (PBMC)  minimal effective concentration  1e-05 to 0.001 µM
4  CCCCOc1nc(N)c2[nH]cc(Cc3ccc4c(c3)CN(CC)CC4)c2n1 [Example 30]  human peripheral blood mononuclear cells (PBMC)  minimal effective concentration   0.001 to 0.01 µM
5  CCCCOc1nc(N)c2[nH]cc(Cc3ccc(CN4CCCC4)nc3)c2n1 [Example 22]  human peripheral blood mononuclear cells (PBMC)  minimal effective concentration   0.001 to 0.01 µM
6  CCCCOc1nc(N)c2[nH]cc(Cc3ccc4c(c3)CN(C(C)C)CC4)c2n1 [Example 31]  human peripheral blood mononuclear cells (PBMC)  minimal effective concentration   0.001 to 0.01 µM
7  CCCCOc1nc(N)c2[nH]cc(Cc3ccc4c(c3)CNCC4)c2n1 [Example 28]  human peripheral blood mononuclear cells (PBMC)  minimal effective concentration   0.001 to 0.01 µM
8  CCCCOc1nc(N)c2[nH]c(C#N)c(Cc3ccc(CN4CCCC4)cc3)c2n1 [Example 42]  human peripheral blood mononuclear cells (PBMC)  minimal effective concentration  1e-05 to 0.001 µM
